Data origin: patent US20230000842A1

Tested System: CLK2 kinase (Homo sapiens)
Sequence (P49760 whole entry): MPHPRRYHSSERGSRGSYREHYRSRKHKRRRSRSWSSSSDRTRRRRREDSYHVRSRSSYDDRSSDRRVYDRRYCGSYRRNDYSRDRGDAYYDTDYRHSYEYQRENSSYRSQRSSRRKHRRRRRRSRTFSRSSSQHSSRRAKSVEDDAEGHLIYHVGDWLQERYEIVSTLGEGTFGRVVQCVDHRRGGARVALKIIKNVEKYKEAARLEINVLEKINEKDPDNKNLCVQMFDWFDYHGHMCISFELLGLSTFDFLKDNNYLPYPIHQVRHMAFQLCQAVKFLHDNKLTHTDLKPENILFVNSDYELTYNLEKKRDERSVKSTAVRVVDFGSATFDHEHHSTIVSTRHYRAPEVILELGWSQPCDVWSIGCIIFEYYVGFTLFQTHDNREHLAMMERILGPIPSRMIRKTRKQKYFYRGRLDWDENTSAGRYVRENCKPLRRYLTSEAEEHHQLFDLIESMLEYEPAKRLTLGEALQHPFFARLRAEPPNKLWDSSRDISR
Measurement Description: CLK2 kinase activity assay (Z-lyte FRET)
Condition Details: Z-lyte Ser/Thr 6 peptide, 60 μM ATP, 1 h at room temperature
pEC50: −log10 of the molar value.
Reported Metric: pEC50

[1] Fc1ccccc1-c1nccc2[nH]c(-c3n[nH]c4cnc(-c5cn[nH]c5)cc34)cc12
[2] CCC(=O)Nc1cncc(-c2ccc3[nH]nc(-c4cc5c(-c6cccc(F)c6)ccnc5[nH]4)c3c2)c1
Data request: Lower value for measured pEC50? Options: 1 , 2 Let me know the label of the one you choose.
Data returned: 2

###

Tested System: CLK2 kinase (Homo sapiens)
Measurement Description: CLK2 kinase activity assay (Z-lyte FRET);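 note: FRET read-out as coumarin to fluorescein emission ratio, unphosphorylated peptide as 0% and phosphorylated peptide as 100% controls, duplicate reactions, non-linear regression fit of dose-response curves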
Condition Details: Z-lyte Ser/Thr 6 peptide, 60 μM ATP, 1 h at room temperature
pEC50: −log10 of the molar value.
Reported Metric: pEC50

Solved cases below.
{"columns": ["Chem Smiles", "pEC50"],
 "data": [
  ["O=C(CC1CCNCC1)Nc1cncc(-c2cnc3[nH]nc(-c4cc5c(-c6ccncc6)ccnc5[nH]4)c3c2)c1", 8.22],
  ["c1cc(-c2ccnc3[nH]c(-c4n[nH]c5ccc(-c6cncc(CNCC7CCCC7)c6)nc45)cc23)ccn1", 7.92]
]}

[a] c1cc(-c2cncc3[nH]c(-c4n[nH]c5ccc(-c6cncc(CN7CCCCC7)c6)nc45)cc23)ccn1
[b] Nc1cncc(-c2cc3c(-c4cc5c(N6CCCCC6)cncc5[nH]4)n[nH]c3cn2)c1
Data request: Lower value for measured pEC50? Options: a , b Let me know the label of the one you choose.
Data returned: a
